Each recorded value in this set is attributed to patent US20170362324A1.

Target: T1, human soluble αvβ5 protein (extracellular domains of human αv and β5 integrin subunits) (human, UniProt P06756 31-992; P18084 24-719)
T1 construct: also called biotin-αvβ5; hsαvβ5
T1 sequence (P06756 31-992 limits assumed, chain 1 of 2): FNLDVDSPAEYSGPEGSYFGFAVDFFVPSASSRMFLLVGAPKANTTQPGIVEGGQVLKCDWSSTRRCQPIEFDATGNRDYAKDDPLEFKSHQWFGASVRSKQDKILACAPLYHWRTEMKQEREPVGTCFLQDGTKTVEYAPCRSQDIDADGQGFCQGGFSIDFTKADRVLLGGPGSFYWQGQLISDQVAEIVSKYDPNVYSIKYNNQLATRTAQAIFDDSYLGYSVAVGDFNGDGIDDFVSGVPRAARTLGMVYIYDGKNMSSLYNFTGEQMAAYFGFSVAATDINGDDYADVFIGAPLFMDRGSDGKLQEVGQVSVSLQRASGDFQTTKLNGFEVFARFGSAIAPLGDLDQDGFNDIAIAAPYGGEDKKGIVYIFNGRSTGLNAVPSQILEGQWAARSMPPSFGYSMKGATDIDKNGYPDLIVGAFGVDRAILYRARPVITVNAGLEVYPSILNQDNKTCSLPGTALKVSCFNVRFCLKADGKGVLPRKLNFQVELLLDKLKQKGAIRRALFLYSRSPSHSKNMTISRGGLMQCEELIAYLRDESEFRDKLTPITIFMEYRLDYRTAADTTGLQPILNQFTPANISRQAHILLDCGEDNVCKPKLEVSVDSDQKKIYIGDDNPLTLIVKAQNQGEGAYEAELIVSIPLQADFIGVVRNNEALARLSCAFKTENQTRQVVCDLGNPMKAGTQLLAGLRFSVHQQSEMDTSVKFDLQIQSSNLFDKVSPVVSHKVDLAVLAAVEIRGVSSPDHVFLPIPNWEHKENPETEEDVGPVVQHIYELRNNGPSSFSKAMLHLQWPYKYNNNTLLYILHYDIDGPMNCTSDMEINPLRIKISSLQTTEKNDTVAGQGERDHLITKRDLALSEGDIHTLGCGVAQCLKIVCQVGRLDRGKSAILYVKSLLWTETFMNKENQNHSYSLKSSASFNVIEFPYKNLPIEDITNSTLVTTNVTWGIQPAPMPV
T1 sequence (P18084 24-719 limits assumed, chain 2 of 2): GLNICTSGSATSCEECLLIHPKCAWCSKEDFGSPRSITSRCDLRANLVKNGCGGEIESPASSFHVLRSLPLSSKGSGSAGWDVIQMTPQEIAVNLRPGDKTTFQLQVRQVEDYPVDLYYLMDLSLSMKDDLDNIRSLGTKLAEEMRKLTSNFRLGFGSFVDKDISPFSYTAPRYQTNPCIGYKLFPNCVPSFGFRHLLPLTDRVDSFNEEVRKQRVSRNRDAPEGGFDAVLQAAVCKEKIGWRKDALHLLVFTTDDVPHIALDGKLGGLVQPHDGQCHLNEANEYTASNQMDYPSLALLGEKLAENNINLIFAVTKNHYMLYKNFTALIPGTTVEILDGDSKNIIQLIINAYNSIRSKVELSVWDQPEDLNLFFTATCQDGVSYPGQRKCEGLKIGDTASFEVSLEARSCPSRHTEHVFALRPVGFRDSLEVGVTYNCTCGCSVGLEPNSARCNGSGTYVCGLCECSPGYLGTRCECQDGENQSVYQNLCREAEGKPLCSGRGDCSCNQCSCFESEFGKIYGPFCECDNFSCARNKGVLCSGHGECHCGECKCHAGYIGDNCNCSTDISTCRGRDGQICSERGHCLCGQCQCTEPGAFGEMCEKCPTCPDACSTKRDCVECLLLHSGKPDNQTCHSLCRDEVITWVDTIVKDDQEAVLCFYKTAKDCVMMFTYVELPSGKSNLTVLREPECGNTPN
Experiment: αvβ5-vitronectin blocking ELISA
MEASURE_NAME: pIC50
Answers are plain numbers, as −log10 of the molar value.

Below, 3 binders whose answers are already recorded.
VH5/VL2 Agly-IgG4.P (S228P)/IgG1 (N297Q) (antibody, V domains shown, also called VH5/VL2 (Agly-IgG4P/G1); H5/L2) VH: EVQVQQSGGGLVKPGGSLRLSCKASGYTFTSYWMHWVKQAPGKGLEWVGAIYPGNSDTSYNQKFKGKATLSAVTSPNTAYLQMNSLKTEDTAVYYCTTTTYGYDWFAYWGQGTLVTVSS VL: NIQMTQSPSSLSASVGDRVTMSCKSSQSVLYSSNQKNYLAWYQQKPGKSPKLLIYWASTRESGVPDRFTGSGSGTDFTLTISSLQPEDFATYYCHQYLSSLTFGQGTKLEIKR	8.91
VH4/VL0 Agly-IgG4.P (S228P)/IgG1 (N297Q) (antibody, V domains shown, also called VH4/VL0 (Agly-IgG4P/G1); H4/L0) VH: EVQVVQSGGGLVKPGESLRLSCKASGYTFTSYWMHWVKQAPGKGLEWVGAIYPGNSDTSYNQKFKGKFTISADTSPNTAYLQMNSLKTEDTAVYYCTTTTYGYDWFAYWGQGTLVTVSS VL: DIQMTQSPSSVSASVGDRVTITCKSSQSVLYSSNQKNYLAWYQQKPGKAPKLLIYWASTRESGVPSRFSGSGSGTDFTLTISSLQPEDFATYYCHQYLSSLTFGQGTKVEIKR	8.82
Mouse chimeric ALULA (murine ALULA variable domains fused to human IgG1 heavy chain and human kappa light chain domains) (antibody, V domains shown, also called chimeric form of ALULA; chimeric murine antibody) VH: EVQVQQSGTVLARPGASVKMSCKASGYTFTSYWMHWVKQRPGQGLEWIGAIYPGNSDTSYNQKFKGKAKLTAVTSPNTAYMELSSLTNEDSAVYYCTTTTYGYDWFAYWGQGTLVTVSA VL: NIMMTQSPSSLTVSAGEKVTMSCKSSQSVLYSSNQKNYLAWYQQKPGQSPKLLIYWASTRESGVPDRFTGSGSGTDFTLTISSVQAEDLAVYYCHQYLSSLTFGAGTKLELK	8.80

Request: For the binder ALULA-H4/L2-IgG4.P(S228P)/IgG1(N297Q) (antibody, V domains shown, Hybrid aglycosylated IgG4.P (S228P)/IgG1 (N297Q) heavy chain, human kappa light chain; also called VH4/VL2 (Agly-IgG4P/G1); H4/L2 antibody) VH: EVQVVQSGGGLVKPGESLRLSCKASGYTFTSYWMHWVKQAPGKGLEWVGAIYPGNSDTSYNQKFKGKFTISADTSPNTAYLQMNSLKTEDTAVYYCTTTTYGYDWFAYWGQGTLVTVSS VL: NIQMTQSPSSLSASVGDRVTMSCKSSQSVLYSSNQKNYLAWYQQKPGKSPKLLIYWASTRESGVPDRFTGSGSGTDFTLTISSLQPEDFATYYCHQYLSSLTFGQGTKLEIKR , give its reported pIC50.
Response: 8.97
